Values were extracted from PubChem BioAssay (NCI).

# Tested on: UACC-62 melanoma
# Assay Comment: NCI-60 one-dose screen, 48 h (100 = growth as untreated, 0 = no growth, -100 = all killed)
# Condition Label: 10 µM unless noted
The panel holds about 83,000 compounds, 20% with a hit somewhere; the sample as a whole holds those more often.
Strictly below 50% in growth: yes (1). Otherwise: no (0).

Record excerpt, results attached:
INSERT INTO measurements (compound, assigned_label) VALUES
  ('COc1ccc(/C=C(\C#N)n2nnc3c(F)cccc32)cc1', 'yes (1)'),
  ('c1cc2nc(-c3cn[nH]c3)c3c(c2cc1-c1cn[nH]c1)C1CCC3C1 (stereo not drawn)', 'no (0)'),
  ('CC(=O)CC[C@H]1C(=O)N[C@@H](C(C)C)C(=O)N[C@@H](Cc2cc(O)cc(F)c2)C(=O)N2CCC[C@H](N2)C(=O)O[C@H](/C(C)=C/C=C/C(=O)OC(C)(C)C)C/C=C/C=C/[C@H](O)[C@H](C)[C@H]1O', 'no (0)'),
  ('Cc1ccc(C(C)C)cc1C(=O)C[n+]1ccccc1', 'no (0)'),
  ('COC(=O)c1ccc2[nH]c(O)c(C(=Nc3ccc(N(C)C(=O)CN4CCN(C)CC4)cc3)c3ccccc3)c2c1', 'no (0)'),
  ('CC(C)OC(=O)Nc1ccc(-c2nc(-c3cccc(OCCN4CCOCC4)c3)c(-c3ccnc(Br)c3)[nH]2)cc1', 'yes (1)');

Query block: Strictly below 50% in growth? "Cc1nn(-c2ccccc2)c(-n2ccnc2)c1/C=N/Nc1nc(-c2ccc(Cl)c(Cl)c2)cs1"
Result block: no (0)

Query block: Is growth of "Cc1nc(NC(=O)COc2ccc(/C=C3\Cc4ccc(Cl)cc4C3=O)cc2)sc1C" strictly below 50%?
Result block: no (0)

----------
# Tested on: U251 CNS
# Assay Comment: NCI-60 one-dose screen, 48 h
# Condition Label: 10 µM unless noted
The panel holds about 83,000 compounds, 20% with a hit somewhere; the sample as a whole holds those more often. The source made the active and inactive calls. Rule for the calls: active = growth percent below 10; inactive = the rest.
Hello, when you answer, please use one of the following outcomes: active, inactive

INSERT INTO results (compound, assigned_label) VALUES
  ('Cc1ccc(NC2=C(Cl)C(=O)c3nc(C)ccc3C2=O)cc1', 'inactive'),
  ('O=c1ccn(Cc2cn(-c3c4ccccc4nc4ccccc34)nn2)c(=O)[nH]1', 'inactive'),
  ('NCCOc1ncccc1/C=C1\c2ccccc2-c2ccc(C(F)F)cc21', 'inactive'),
  ('Cc1cc(=O)oc2cc(OC(=O)CN3CCN(C)CC3)ccc12', 'inactive'),
  ('CCN(CC)c1ccc(C2=NN(C(C)=O)C(c3cc(OC)c(OC)c(OC)c3)C2)cc1 (stereo not given)', 'inactive');

Query block: Outcome? CC1=C(SCCC(=O)OC(C[Se]C2=C(C)C(=O)c3ccccc3C2=O)C(=O)NC(C)(C)C)C(=O)c2ccccc2C1=O (stereo not given)
Result block: active

Query block: Outcome? "Cc1ccc2nc(NC(=O)CSc3nc(Cl)c(C#N)c(-c4ccccc4)n3)sc2c1"
Result block: inactive

Query block: What is the recorded call for this compound in the test? O=C(O)C(c1ccccc1)N1C(=O)CSC1=S (stereo not given)
Result block: inactive

Query block: Outcome? Cc1ccc(C2CC(c3ccc(Nc4ccnc5cc(Cl)ccc45)cc3)=NN2C=O)cc1 (stereo not given)
Result block: inactive

Query block: // param item: "O=c1ccc(N=Nc2ccc([N+](=O)[O-])cc2)ccc1O" ; yields the recorded call
Result block: inactive

----------
# Test system: OVCAR-4 ovarian
# Assay Comment: NCI-60 one-dose screen, 48 h
# Condition Label: 10 µM unless noted
Compounds without any hit were thinned out: in the full panel of roughly 83,000, 20% have a hit. The source made the active and inactive calls. How the source made its calls: active means growth percent below 10; inactive means the rest.
Entry note: the call must match one of active, inactive

Previously resolved entries follow.
INSERT INTO assay_data (compound, assayed_system, assigned_label) VALUES
  ('CN(C)c1ccc2nc3ccc(=[N+](C)C)c([N+](=O)[O-])c-3sc2c1', 'OVCAR-4 ovarian', 'active'),
  ('COc1ccc(-c2ncnc3c2ncn3CC#CCCl)cc1', 'OVCAR-4 ovarian', 'inactive'),
  ('CC(=O)N1CCN(c2ccc(OCC3CO[C@](Cn4ccnc4)(c4ccc(Cl)cc4Cl)O3)cc2)CC1 (stereo not given in full)', 'OVCAR-4 ovarian', 'inactive'),
  ('CC1=C(SCCC(=O)OC(C[Se]C2=C(C)C(=O)c3ccccc3C2=O)C(=O)NC(C)(C)C)C(=O)c2ccccc2C1=O (stereo not given)', 'OVCAR-4 ovarian', 'active'),
  ('O=C(Nc1nc2ccc(F)cc2s1)c1cccnc1Nc1ccc(Cl)cc1Cl', 'OVCAR-4 ovarian', 'active'),
  ('O=C(CCCCCCSc1nc(-c2ccccc2)cc(-c2ccccc2)n1)NO', 'OVCAR-4 ovarian', 'inactive'),
  ('Cc1ccc(C(=O)NN2C(=O)CSC2c2ccc(Cl)cc2)cn1 (stereo not given)', 'OVCAR-4 ovarian', 'inactive'),
  ('Cc1nn(-c2ccccc2)c(-n2ccnc2)c1/C=N/Nc1nc(-c2ccc(F)cc2)cs1', 'OVCAR-4 ovarian', 'inactive'),
  ('CCOC(=O)Nc1ccc(-c2nc(-c3cccc(OC)c3)c(-c3ccnc(Br)c3)[nH]2)cc1', 'OVCAR-4 ovarian', 'inactive'),
  ('O=C(S)CNC(=O)c1ccccc1', 'OVCAR-4 ovarian', 'inactive');

Query block: Check the results log: what was the call for "C#Cc1cccc(NC(=O)Nc2ccccc2NC(=O)CCl)c1" ?
Result block: active

----------
# Tested on: 786-0 renal
# Assay Comment: NCI-60 one-dose screen, 48 h (100 = growth as untreated, 0 = no growth, -100 = all killed)
# Condition Label: 10 µM unless noted
The panel holds about 83,000 compounds, 20% with a hit somewhere; the sample as a whole holds those more often.
Flag rule - growth less than 30% flags true; the remaining entries get false.

INSERT INTO results (compound, assayed_system, assigned_label) VALUES
  ('O=CN(SSN(C=O)C1CCCCC1)C1CCCCC1', '786-0 renal', 'false'),
  ('NCCOc1ncccc1/C=C1\C2C=CC=CC2C2C=CC(F)=CC12 (stereo unspecified)', '786-0 renal', 'true'),
  ('NC(=O)C1(Nc2ccc(Br)cc2)CCCC1', '786-0 renal', 'false'),
  ('O=CN1N=C(c2ccc(Nc3ccnc4cc(Cl)ccc34)cc2)CC1c1ccccc1 (stereo unspecified)', '786-0 renal', 'false'),
  ('Cc1cc2[nH]c(=O)c3c4ncccc4cn3c2cc1C', '786-0 renal', 'true');

Query block: Please indicate whether the reported growth of "COc1ccc(-n2c(N)c(-c3nc4ccccc4[nH]3)cc(C#N)c2=O)cc1" is strictly below 30%.
Result block: false

----------
# Test system: U251 CNS
# Assay Comment: NCI-60 one-dose screen, 48 h (100 = growth as untreated, 0 = no growth, -100 = all killed)
# Condition Label: 10 µM unless noted
Compounds without any hit were thinned out: in the full panel of roughly 83,000, 20% have a hit.
Field 'label' (enum: true / false). Set to true when growth is strictly under 90%; else false.

Query block: API: query returns whether the molecule falls strictly under 90% in growth. Query: CC1Cc2ccccc2N1NC(=O)c1ccc(Cl)c(S(N)(=O)=O)c1 (stereo not given)
Result block: false

Query block: Field: below-cutoff. Rule: recorded growth strictly less than 90%. Subject: "COc1cc(C(=O)c2cc(C)c3[nH]c4ccc(O)cc4c3c2C)cc(OC)c1OC"
Result block: true

Query block: Consider the molecule CCN1C(=O)N(CC)C2Nn3c(s/c(=C4\C(=O)Nc5ccccc54)c3=O)=NC21 (stereo not given) . Is its growth strictly less than 90%?
Result block: true

Query block: Please state whether growth is below 90% for "CN1CCN(c2ccc(-c3ccc4ncc(C#N)c(Nc5ccc(F)c(Cl)c5)c4c3)cc2)CC1"
Result block: true

Query block: Is it true that growth reported for "CC(C)C(=O)Nc1ccc(-c2nc(-c3cccc(OCCN4CCOCC4)c3)c(-c3ccnc(Br)c3)[nH]2)cc1" is less than 90%?
Result block: true

Query block: Criterion: growth strictly below 90%. Is it met by "Cc1nc2ccccc2c(/C=C/c2ccc(Cl)cc2)c1C(=O)/C=C/c1cccs1" ?
Result block: true

----------
# Tested on: UO-31 renal
# Assay Comment: NCI-60 one-dose screen, 48 h (100 = growth as untreated, 0 = no growth, -100 = all killed)
# Condition Label: 10 µM unless noted
About 83,000 compounds went through this panel and 20% of them were active in at least one assay; those are over-represented in the sample as a whole. Calls of active or inactive are those of the source. Rule for the calls: active = growth percent below 10; inactive = the rest.
Listing of recorded growth by entry.

INSERT INTO assay_data (compound, assayed_system, experimental_value) VALUES
  ('COc1ccc2c(c1)nc(NNC(=O)c1cnccn1)c1cccn12', 'UO-31 renal', '4.76% (active)'),
  ('CCOC(=O)C1=C(N)Oc2c(sc3c(C)cccc23)C1c1ccc(F)cc1 (centres undefined)', 'UO-31 renal', '40.7% (inactive)'),
  ('CN1CCN(Cc2ccc(NC(=O)c3ccc(C(C)(C)C)c(C#Cc4cnc5cccnn45)c3)cc2C(F)(F)F)CC1', 'UO-31 renal', '-47% (active)');

Next compound, growth to be filled in.
Query block: Checklist item: growth tested on UO-31 renal, entry "Cc1nn(-c2ccccc2)c(-n2ccnc2)c1/C=N/Nc1nc(-c2ccc(Cl)c(Cl)c2)cs1" , value?
Result block: 49.6% (inactive)
